# target.or.system: MATE2-K (Homo sapiens, UniProt Q86VL8)
# Sequence (Q86VL8 whole entry): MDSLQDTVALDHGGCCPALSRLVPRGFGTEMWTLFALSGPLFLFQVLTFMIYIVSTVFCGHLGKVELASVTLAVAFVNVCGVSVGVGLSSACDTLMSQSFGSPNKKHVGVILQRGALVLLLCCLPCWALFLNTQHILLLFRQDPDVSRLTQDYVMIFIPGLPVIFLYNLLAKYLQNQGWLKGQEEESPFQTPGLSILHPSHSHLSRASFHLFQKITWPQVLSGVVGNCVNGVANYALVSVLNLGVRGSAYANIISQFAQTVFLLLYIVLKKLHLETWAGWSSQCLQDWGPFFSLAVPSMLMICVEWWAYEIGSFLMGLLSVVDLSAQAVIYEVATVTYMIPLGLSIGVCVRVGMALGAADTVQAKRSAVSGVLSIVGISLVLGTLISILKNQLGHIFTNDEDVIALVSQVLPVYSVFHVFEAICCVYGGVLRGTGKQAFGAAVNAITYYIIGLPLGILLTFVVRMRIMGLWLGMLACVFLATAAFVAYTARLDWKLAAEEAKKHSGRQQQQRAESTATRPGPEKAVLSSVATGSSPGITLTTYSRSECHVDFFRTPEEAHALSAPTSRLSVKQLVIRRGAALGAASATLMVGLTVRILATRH
# assay.remarks: in vitro
# condition.context: HEK293 cells expressing MATE2-K
assay.endpoint: uptake ratio at 1 min, 2.5 µM

- CNCCc1ccccc1: < 2
- Cc1cc(O)cc(C)c1OCC(C)N (stereo unspecified): < 2
- CN1CCN(CC(=O)N2c3ccccc3C(=O)Nc3cccnc32)CC1 [PIRENZEPINE]: < 2
- Cc1ncc(C[n+]2cccc(CCO)c2C)c(N)n1: > 2
- CC(C)(C)NCC(O)c1cc(O)cc(O)c1 (stereo unspecified) [TERBUTALINE]: > 2
- Nc1ncn([C@H]2C[C@H](O)[C@@H](CO)O2)c(=O)n1 [DECITABINE]: < 2
- CN(C)CCc1c[nH]c2ccc(Cn3cncn3)cc12 [RIZATRIPTAN]: > 2
- COc1cc(CCN)ccc1O: < 2
- CNCc1ccc(CSCCN/C(=C/[N+](=O)[O-])NC)o1: > 2
- CCC(NC(C)C)C(O)c1ccc(O)c(O)c1 (stereo unspecified) [ISOETHARINE]: > 2
- CCNCC(O)c1cccc(O)c1 (stereo unspecified) [ETILEFRINE]: > 2
- Clc1ccc(COC(Cn2ccnc2)c2ccc(Cl)cc2Cl)c(Cl)c1 (stereo unspecified) [MICONAZOLE]: < 2
- Cc1ncc(C[n+]2csc(CCOP(=O)(O)O)c2C)c(N)n1 [MONOPHOSPHOTHIAMINE]: < 2
- CC[N+](C)(CC)CCOC(=O)C(O)(c1ccccc1)C1CCCCC1 (stereo unspecified) [OXYPHENONIUM]: > 2
- NCC(O)c1cccc(O)c1 (stereo unspecified) [NORFENEFRINE]: < 2
- COC(=O)CCc1ccc(OCC(O)CNC(C)C)cc1 (stereo unspecified) [ESMOLOL]: < 2

====

# target.or.system: MATE2-K (Homo sapiens, UniProt Q86VL8)
# assay.remarks: in vitro
# condition.context: HEK293 cells expressing MATE2-K
uptake ratio at 1 min, 2.5 µM: recorded values
assay.endpoint: uptake ratio at 1 min, 2.5 µM

* CC(C)NCC(O)c1cc(O)cc(O)c1 (stereo unspecified) | > 2
* CCCC[N+]1(C)[C@@H]2C[C@@H](OC(=O)[C@H](CO)c3ccccc3)C[C@H]1[C@@H]1O[C@@H]12 (stereo partly specified) | < 2
* CC(C)(C)NCC(O)COc1cccc2c1CC(O)C(O)C2 (stereo unspecified) | > 2
* Oc1ccc(CC2NCCc3cc(O)c(O)cc32)cc1 (stereo unspecified) | > 2
* O=C(O[C@H]1C[N+]2(CCCOc3ccccc3)CCC1CC2)C(O)(c1cccs1)c1cccs1 | < 2
* C[C@@H]1O[C@@]2(CS1)CN1CCC2CC1 | < 2

====

CL: recorded values
# target.or.system: Multidrug and toxin extrusion protein 1 (Homo sapiens, UniProt Q96FL8)
# Sequence (Q96FL8 whole entry): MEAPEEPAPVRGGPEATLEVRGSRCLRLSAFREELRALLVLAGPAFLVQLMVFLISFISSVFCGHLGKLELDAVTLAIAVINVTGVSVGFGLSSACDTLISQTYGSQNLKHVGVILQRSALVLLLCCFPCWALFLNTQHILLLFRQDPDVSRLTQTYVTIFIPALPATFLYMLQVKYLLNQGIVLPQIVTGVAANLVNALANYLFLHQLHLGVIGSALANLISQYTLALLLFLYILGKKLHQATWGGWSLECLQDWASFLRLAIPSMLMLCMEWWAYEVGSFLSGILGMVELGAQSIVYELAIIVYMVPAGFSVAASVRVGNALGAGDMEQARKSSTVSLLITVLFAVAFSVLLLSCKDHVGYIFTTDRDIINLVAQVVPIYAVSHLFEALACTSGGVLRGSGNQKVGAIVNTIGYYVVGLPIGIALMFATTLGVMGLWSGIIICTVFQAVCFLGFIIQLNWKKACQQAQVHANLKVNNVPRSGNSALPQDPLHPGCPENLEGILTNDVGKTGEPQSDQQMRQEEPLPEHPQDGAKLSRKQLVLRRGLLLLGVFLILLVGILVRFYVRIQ
# assay.remarks: Substrate activity at MATE1 (unknown origin) expressed in HEK293 cells assessed as intrinsic clearance by measuring ratio of Vmax (maximum transport velocity) over Km measured per mg of protein by HPLC-MS/MS analysis
# Format: cell-based
assay.endpoint: CL (µL/min)

• CC(=O)OC(C)C[N+](C)(C)C (centres undefined) = 8.98
• CNC[C@H](O)c1ccc(O)c(O)c1 [EPINEPHRINE] = 21.1
• CN(C)CCc1c[nH]c2ccc(C[C@@H]3COC(=O)N3)cc12 = 94.5
• CCN1CCCC1CNC(=O)c1cc(S(=O)(=O)CC)c(N)cc1OC (racemic) [AMISULPRIDE] = 22.4
• NC[C@H](O)c1ccc(O)c(O)c1 [NOREPINEPHRINE] = 10
• CCN1CCCC1CNC(=O)c1cc(S(N)(=O)=O)ccc1OC (centres undefined) [SULPIRIDE] = 53.2
• CN(C)CCc1c[nH]c2ccc(CC3COC(=O)N3)cc12 (racemic) = 52.4
• [H]/N=C(/N)N/C(=N/[H])NCCc1ccccc1 = 83.9
• CC(CCc1ccc(O)cc1)NCCc1ccc(O)c(O)c1 (centres undefined) = 29.2
• NCCc1ccc(O)c(O)c1 = 19.2
• CN(C)CCc1c[nH]c2ccc(C[C@H]3COC(=O)N3)cc12 = 65.2
• C[C@H]1N=C(N(C)C)N=C(N)N1 = 108
• COCCn1c2c([n+](Cc3cnccn3)c1C)C(=O)c1ccccc1C2=O = 3.76
• Cc1ncc(CO)c(CO)c1O = 2.37
• Nc1nc(=O)n([C@@H]2CS[C@H](CO)O2)cc1F = 4.56
• Nc1ccn([C@H]2CC[C@@H](CO)O2)c(=O)n1 = 6.53
• NCCc1ccc(O)cc1 = 43.6
• Cc1ncc(CO)c(CN)c1O = 3.23
• Cc1ncc(C[n+]2csc(CCO)c2C)c(N)n1 = 34.9
